test system: ATP; test: switch fluorescence ratio, 500 uM ATP over buffer (Cy3 cluster intensity, sum of 5 cycles each) (fold (ratio)); higher = stronger signal-on switching upon ATP binding; sequences stand for … in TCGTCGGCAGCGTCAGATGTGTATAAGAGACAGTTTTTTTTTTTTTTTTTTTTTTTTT…TC; conditions: aptamer strand: ATP DNA aptamer (quencher-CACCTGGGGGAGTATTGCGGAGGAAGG + anchor), 100 nM annealed; ATP concentration: 500 uM;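 note: ATP exposure 15 min at 22 °C before imaging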
attribute_measured: switch fluorescence ratio

[[record]]
sequence_data = "GCTCTCACTT"
attribute_measured = "switch fluorescence ratio"
numeric_result = 1.02

[[record]]
sequence_data = "GAGAGGGTTG"
attribute_measured = "switch fluorescence ratio"
numeric_result = 0.971

[[record]]
sequence_data = "TATTGGGCTT"
attribute_measured = "switch fluorescence ratio"
numeric_result = 0.989

[[record]]
sequence_data = "TTTAGGGATG"
attribute_measured = "switch fluorescence ratio"
numeric_result = 0.989

[[record]]
sequence_data = "TCATGCTTGT"
attribute_measured = "switch fluorescence ratio"
numeric_result = 0.985

[[record]]
sequence_data = "TGTGTTTATT"
attribute_measured = "switch fluorescence ratio"
numeric_result = 1.05

[[record]]
sequence_data = "TTTGCTAGGT"
attribute_measured = "switch fluorescence ratio"
numeric_result = 1.02

[[record]]
sequence_data = "GATAATTTGT"
attribute_measured = "switch fluorescence ratio"
numeric_result = 0.973

[[record]]
sequence_data = "AAGTAGGCGC"
attribute_measured = "switch fluorescence ratio"
numeric_result = 0.996

[[record]]
sequence_data = "TTAGAACTCC"
attribute_measured = "switch fluorescence ratio"
numeric_result = 1.05

[[record]]
sequence_data = "ACAACGGGTG"
attribute_measured = "switch fluorescence ratio"
numeric_result = 2.1

[[record]]
sequence_data = "GGGTATCACG"
attribute_measured = "switch fluorescence ratio"
numeric_result = 1

[[record]]
sequence_data = "TTCGGGCGGA"
attribute_measured = "switch fluorescence ratio"
numeric_result = 0.98

[[record]]
sequence_data = "TTATTTGTGG"
attribute_measured = "switch fluorescence ratio"
numeric_result = 0.97

[[record]]
sequence_data = "ACCCGGACCT"
attribute_measured = "switch fluorescence ratio"
numeric_result = 1.34

[[record]]
sequence_data = "GGTGTAGCGG"
attribute_measured = "switch fluorescence ratio"
numeric_result = 0.982

[[record]]
sequence_data = "TTTTCCAGGT"
attribute_measured = "switch fluorescence ratio"
numeric_result = 1.83

[[record]]
sequence_data = "TGGGGCTCTT"
attribute_measured = "switch fluorescence ratio"
numeric_result = 1

[[record]]
sequence_data = "TACTGTGGTC"
attribute_measured = "switch fluorescence ratio"
numeric_result = 1.03

[[record]]
sequence_data = "GTGTGGGGAC"
attribute_measured = "switch fluorescence ratio"
numeric_result = 0.988

[[record]]
sequence_data = "GAGAGTATGT"
attribute_measured = "switch fluorescence ratio"
numeric_result = 0.998

[[record]]
sequence_data = "GGGGTACGGC"
attribute_measured = "switch fluorescence ratio"
numeric_result = 1.03

[[record]]
sequence_data = "AGGGTTGTTA"
attribute_measured = "switch fluorescence ratio"
numeric_result = 0.982

[[record]]
sequence_data = "CCTTTTGGTG"
attribute_measured = "switch fluorescence ratio"
numeric_result = 1.38

[[record]]
sequence_data = "TGTGACGAAC"
attribute_measured = "switch fluorescence ratio"
numeric_result = 1.23

[[record]]
sequence_data = "AGTTGGCTGA"
attribute_measured = "switch fluorescence ratio"
numeric_result = 0.997

[[record]]
sequence_data = "GTCGAAGCCC"
attribute_measured = "switch fluorescence ratio"
numeric_result = 1.03

[[record]]
sequence_data = "TTGAATCAAG"
attribute_measured = "switch fluorescence ratio"
numeric_result = 1.01

[[record]]
sequence_data = "AAAGAGGGG"
attribute_measured = "switch fluorescence ratio"
numeric_result = 0.98

[[record]]
sequence_data = "TACAGGTTTT"
attribute_measured = "switch fluorescence ratio"
numeric_result = 0.972

[[record]]
sequence_data = "ACTGGAGGGC"
attribute_measured = "switch fluorescence ratio"
numeric_result = 1.08

[[record]]
sequence_data = "TTATAATTGT"
attribute_measured = "switch fluorescence ratio"
numeric_result = 0.997

[[record]]
sequence_data = "GGGTGGTGCC"
attribute_measured = "switch fluorescence ratio"
numeric_result = 0.997

[[record]]
sequence_data = "ATTACGTAGC"
attribute_measured = "switch fluorescence ratio"
numeric_result = 1.43

[[record]]
sequence_data = "CTTGAGTTAG"
attribute_measured = "switch fluorescence ratio"
numeric_result = 1.02

[[record]]
sequence_data = "TATCTTTCTT"
attribute_measured = "switch fluorescence ratio"
numeric_result = 1.06

[[record]]
sequence_data = "GGGGCAGGGG"
attribute_measured = "switch fluorescence ratio"
numeric_result = 1.05

[[record]]
sequence_data = "TATACTGCAC"
attribute_measured = "switch fluorescence ratio"
numeric_result = 1.54

[[record]]
sequence_data = "TTAGAGGCCC"
attribute_measured = "switch fluorescence ratio"
numeric_result = 1.01

[[record]]
sequence_data = "TCCTGGGGAT"
attribute_measured = "switch fluorescence ratio"
numeric_result = 0.99

[[record]]
sequence_data = "ATGGTAGGTG"
attribute_measured = "switch fluorescence ratio"
numeric_result = 1.04

[[record]]
sequence_data = "TGGGGCTAAT"
attribute_measured = "switch fluorescence ratio"
numeric_result = 1.02

[[record]]
sequence_data = "CGTCCGGGGT"
attribute_measured = "switch fluorescence ratio"
numeric_result = 1.48

[[record]]
sequence_data = "GGGTGCGTTC"
attribute_measured = "switch fluorescence ratio"
numeric_result = 0.964

[[record]]
sequence_data = "AGATTACCTG"
attribute_measured = "switch fluorescence ratio"
numeric_result = 1.02

[[record]]
sequence_data = "AAAGGAGGAA"
attribute_measured = "switch fluorescence ratio"
numeric_result = 0.989

[[record]]
sequence_data = "TTAGGAACAC"
attribute_measured = "switch fluorescence ratio"
numeric_result = 1.07

[[record]]
sequence_data = "TTGGGGAGGC"
attribute_measured = "switch fluorescence ratio"
numeric_result = 0.984

[[record]]
sequence_data = "TGTGATGAT"
attribute_measured = "switch fluorescence ratio"
numeric_result = 1.01

[[record]]
sequence_data = "TAGGGACGCA"
attribute_measured = "switch fluorescence ratio"
numeric_result = 1.16

[[record]]
sequence_data = "GGTGAGGCTA"
attribute_measured = "switch fluorescence ratio"
numeric_result = 1

[[record]]
sequence_data = "TGTATCGTCG"
attribute_measured = "switch fluorescence ratio"
numeric_result = 0.944

[[record]]
sequence_data = "GCCGTTTTGG"
attribute_measured = "switch fluorescence ratio"
numeric_result = 1

[[record]]
sequence_data = "GGGTATCAGG"
attribute_measured = "switch fluorescence ratio"
numeric_result = 0.965

[[record]]
sequence_data = "ACAAACACTT"
attribute_measured = "switch fluorescence ratio"
numeric_result = 1.16

[[record]]
sequence_data = "TACATTGGCT"
attribute_measured = "switch fluorescence ratio"
numeric_result = 0.982

[[record]]
sequence_data = "AAGTTGGTTC"
attribute_measured = "switch fluorescence ratio"
numeric_result = 0.98

[[record]]
sequence_data = "CCATATTTTT"
attribute_measured = "switch fluorescence ratio"
numeric_result = 0.985

[[record]]
sequence_data = "GCTTTTAGTG"
attribute_measured = "switch fluorescence ratio"
numeric_result = 1

[[record]]
sequence_data = "TAAGAGGCAC"
attribute_measured = "switch fluorescence ratio"
numeric_result = 0.996

[[record]]
sequence_data = "CGGGGGTCGA"
attribute_measured = "switch fluorescence ratio"
numeric_result = 0.989

[[record]]
sequence_data = "GGTTAGAACG"
attribute_measured = "switch fluorescence ratio"
numeric_result = 1.02

[[record]]
sequence_data = "TAGAGGGCTG"
attribute_measured = "switch fluorescence ratio"
numeric_result = 1.01

[[record]]
sequence_data = "GGGTGAGGGA"
attribute_measured = "switch fluorescence ratio"
numeric_result = 1.01

[[record]]
sequence_data = "AACTGGATAT"
attribute_measured = "switch fluorescence ratio"
numeric_result = 1.04

[[record]]
sequence_data = "GGGGCTAACG"
attribute_measured = "switch fluorescence ratio"
numeric_result = 1.02

[[record]]
sequence_data = "TTAGCGTTTT"
attribute_measured = "switch fluorescence ratio"
numeric_result = 1.16

[[record]]
sequence_data = "GGGGCAAGGG"
attribute_measured = "switch fluorescence ratio"
numeric_result = 1.28

[[record]]
sequence_data = "TATCATTTAA"
attribute_measured = "switch fluorescence ratio"
numeric_result = 1.01

[[record]]
sequence_data = "CAGGGAATGT"
attribute_measured = "switch fluorescence ratio"
numeric_result = 0.998

[[record]]
sequence_data = "AGGGGGGTAT"
attribute_measured = "switch fluorescence ratio"
numeric_result = 0.993

[[record]]
sequence_data = "GAGGTTAGCT"
attribute_measured = "switch fluorescence ratio"
numeric_result = 0.976

[[record]]
sequence_data = "ATAGTTCCAG"
attribute_measured = "switch fluorescence ratio"
numeric_result = 1

[[record]]
sequence_data = "CAGGGATTTG"
attribute_measured = "switch fluorescence ratio"
numeric_result = 0.96

[[record]]
sequence_data = "CGGTTAAAAA"
attribute_measured = "switch fluorescence ratio"
numeric_result = 0.982

[[record]]
sequence_data = "GTTCTTGGGA"
attribute_measured = "switch fluorescence ratio"
numeric_result = 1.03

[[record]]
sequence_data = "CGTTGGACGG"
attribute_measured = "switch fluorescence ratio"
numeric_result = 1.03

[[record]]
sequence_data = "AAAGTAGGTT"
attribute_measured = "switch fluorescence ratio"
numeric_result = 0.991

[[record]]
sequence_data = "TTTTTAAAAA"
attribute_measured = "switch fluorescence ratio"
numeric_result = 1.01

[[record]]
sequence_data = "TTTCCTGGGC"
attribute_measured = "switch fluorescence ratio"
numeric_result = 1.37

[[record]]
sequence_data = "AGGAATTTTA"
attribute_measured = "switch fluorescence ratio"
numeric_result = 0.955

[[record]]
sequence_data = "TATTGGTCAA"
attribute_measured = "switch fluorescence ratio"
numeric_result = 0.962

[[record]]
sequence_data = "TTAGGGGACA"
attribute_measured = "switch fluorescence ratio"
numeric_result = 1.04

[[record]]
sequence_data = "TCTTGGGTTT"
attribute_measured = "switch fluorescence ratio"
numeric_result = 0.992

[[record]]
sequence_data = "CTACGGGGCG"
attribute_measured = "switch fluorescence ratio"
numeric_result = 1.01

[[record]]
sequence_data = "TTATAAGCGA"
attribute_measured = "switch fluorescence ratio"
numeric_result = 1.02

